Listed here are compounds together with their documented inhibition at 1 µM.
- SUBJECT_OF_TEST: Acyl-CoA:cholesterol transferase (ACAT) (Rattus norvegicus, UniProt Q7TQM4)
- Construct: prepared from the microsomal fraction of mucosal cells from the small intestines of 6-week old Sprague-Dawley rats; from tissue; host or cells: microsomal fraction of small-intestinal mucosal cells, Sprague-Dawley rats
- Sequence (Q7TQM4 whole entry): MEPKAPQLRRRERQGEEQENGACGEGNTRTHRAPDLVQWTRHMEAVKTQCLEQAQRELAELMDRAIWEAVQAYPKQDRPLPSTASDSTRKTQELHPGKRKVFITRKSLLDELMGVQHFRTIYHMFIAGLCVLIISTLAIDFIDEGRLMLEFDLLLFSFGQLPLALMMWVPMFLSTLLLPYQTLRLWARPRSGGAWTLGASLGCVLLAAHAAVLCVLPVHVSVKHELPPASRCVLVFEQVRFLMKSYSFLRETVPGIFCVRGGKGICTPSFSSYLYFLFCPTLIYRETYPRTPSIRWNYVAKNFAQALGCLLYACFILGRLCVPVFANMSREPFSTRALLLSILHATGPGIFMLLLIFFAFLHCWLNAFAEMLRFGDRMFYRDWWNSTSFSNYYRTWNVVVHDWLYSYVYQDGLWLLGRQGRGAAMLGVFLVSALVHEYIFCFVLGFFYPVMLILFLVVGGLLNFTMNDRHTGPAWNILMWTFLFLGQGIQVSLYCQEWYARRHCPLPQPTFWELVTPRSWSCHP
- RUN_DESCRIPTION: Acyl-CoA:cholesterol transferase (ACAT)-inhibiting action
- Assay type: biochemical, Sprague-Dawley rats
- RECORDED_CONDITIONS: 10^-6 M; microsomal fraction of mucosal cells from rat small intestines; labeled cholesterol ester formed from [1-14C]oleyl-CoA; read-out: ACAT inhibiting rate (%) 10^-6 M
ENDPOINT: inhibition at 1 µM (%)

- COMPOUND: "CCOC(=O)CNC(=O)Nc1oc(=O)c2ccccc2c1-c1ccccc1OC [Example 20]"
  UNIT: "%"
  NUMERIC_RESULT: 88.7
- COMPOUND: "Cn1c(NC(=O)Nc2ccc(F)cc2F)c(-c2cc(C(C)(C)C)c(O)c(C(C)(C)C)c2)c2ccccc2c1=O [Example 23]"
  UNIT: "%"
  NUMERIC_RESULT: 54.3
- COMPOUND: "CC(=O)Oc1c(C)cc(NC(=O)Nc2oc(=O)c3ccc(F)cc3c2-c2ccc(F)cc2)cc1C [Example 17]"
  UNIT: "%"
  NUMERIC_RESULT: 65.7
- COMPOUND: "COc1ccccc1-c1c(NC(=O)NC2CCCCC2)oc(=O)c2ccccc12 [Example 19]"
  UNIT: "%"
  NUMERIC_RESULT: 97.7
- COMPOUND: "Cc1cc2c(-c3ccccc3C)c(NC(=O)Nc3ccc(F)cc3F)n(C)c(=O)c2cc1C [Example 8]"
  UNIT: "%"
  NUMERIC_RESULT: 64.9
- COMPOUND: "CC(=O)Oc1c(C)cc(NC(=O)NC2=C(c3ccccc3)c3ccccc3CS2)cc1C [Example 26]"
  UNIT: "%"
  NUMERIC_RESULT: 94.8
- COMPOUND: "CC(C)(C)OC(=O)Nc1oc(=O)c2ccc(Cl)cc2c1-c1ccccc1 [Example 2]"
  UNIT: "%"
  NUMERIC_RESULT: 76.1
- COMPOUND: "COc1ccccc1-c1c(NC(=O)Nc2ccc(F)cc2F)oc(=O)c2ccccc12 [Example 15]"
  UNIT: "%"
  NUMERIC_RESULT: 99.4
- COMPOUND: "O=C(Nc1ccc(F)cc1F)Nc1oc(=O)c2ccccc2c1-c1ccc(F)cc1 [Example 11]"
  UNIT: "%"
  NUMERIC_RESULT: 92.1

# credit: patent US5198462A
